// provenance: paper PMC10163738

Run description: Tacrolimus pharmacokinetic profiles and trough level monitoring before and after switch of booster from ritonavir to cobicistat in an HIV-infected kidney transplant recipient
Type: in vivo, human
Study conditions: human, plasma, oral, co-administered with darunavir/cobicistat 800/150 mg once daily; 2nd pharmacokinetic profile; read-out: T1/2 (elimination half-life) (converted)
Parameter measured: half-life (h)
One number for each entry, in h.

## Task Reported half-life, compound C=CC[C@@H]1/C=C(\C)C[C@H](C)C[C@H](OC)[C@H]2O[C@@](O)(C(=O)C(=O)N3CCCC[C@H]3C(=O)O[C@H](/C(C)=C/[C@@H]3CC[C@@H](O)[C@H](OC)C3)[C@H](C)[C@@H](O)CC1=O)[C@H](C)C[C@@H]2OC [Tacrolimus, tacrolimus] : ____
## Result 175

----------
Run description: Tacrolimus pharmacokinetic profiles and trough level monitoring before and after switch of booster from ritonavir to cobicistat in an HIV-infected kidney transplant recipient
Format: in vivo, human
Study conditions: human, plasma, oral, co-administered with darunavir/ritonavir 800/100 mg once daily; 2nd pharmacokinetic profile; read-out: T1/2 (elimination half-life) (converted)
Parameter measured: half-life (days)
Give bare numbers, in days.

## Task # half-life lookup, item C=CC[C@@H]1/C=C(\C)C[C@H](C)C[C@H](OC)[C@H]2O[C@@](O)(C(=O)C(=O)N3CCCC[C@H]3C(=O)O[C@H](/C(C)=C/[C@@H]3CC[C@@H](O)[C@H](OC)C3)[C@H](C)[C@@H](O)CC1=O)[C@H](C)C[C@@H]2OC
## Result 11.5

----------
Run description: Tacrolimus pharmacokinetic profiles and trough level monitoring before and after switch of booster from ritonavir to cobicistat in an HIV-infected kidney transplant recipient
Assay type: in vivo, human
Study conditions: human, plasma, oral, co-administered with darunavir/cobicistat 800/150 mg once daily; 3rd pharmacokinetic profile; read-out: T1/2 (elimination half-life) (converted)
Parameter measured: half-life (h)
Numbers only, in h.

## Task What value of half-life has been recorded for this entry: C=CC[C@@H]1/C=C(\C)C[C@H](C)C[C@H](OC)[C@H]2O[C@@](O)(C(=O)C(=O)N3CCCC[C@H]3C(=O)O[C@H](/C(C)=C/[C@@H]3CC[C@@H](O)[C@H](OC)C3)[C@H](C)[C@@H](O)CC1=O)[C@H](C)C[C@@H]2OC [Tacrolimus, tacrolimus]
## Result 183

----------
Run description: Tacrolimus pharmacokinetic profiles and trough level monitoring before and after switch of booster from ritonavir to cobicistat in an HIV-infected kidney transplant recipient
Format: in vivo, human
Study conditions: human, plasma, oral, 0.5 mg, co-administered with darunavir/ritonavir 800/100 mg once daily; 3rd pharmacokinetic profile
Parameter measured: Cmax (ng/mL)
One number for each entry, in ng/mL.

## Task For the compound shown here, C=CC[C@@H]1/C=C(\C)C[C@H](C)C[C@H](OC)[C@H]2O[C@@](O)(C(=O)C(=O)N3CCCC[C@H]3C(=O)O[C@H](/C(C)=C/[C@@H]3CC[C@@H](O)[C@H](OC)C3)[C@H](C)[C@@H](O)CC1=O)[C@H](C)C[C@@H]2OC [Tacrolimus, tacrolimus] , give the reported Cmax.
## Result 17.6

----------
Run description: Tacrolimus pharmacokinetic profiles and trough level monitoring before and after switch of booster from ritonavir to cobicistat in an HIV-infected kidney transplant recipient
Type: in vivo, human
Study conditions: human, plasma, oral, co-administered with darunavir/ritonavir 800/100 mg once daily; 3rd pharmacokinetic profile; read-out: T1/2 (elimination half-life) (converted)
Parameter measured: half-life

## Task Recorded half-life of C=CC[C@@H]1/C=C(\C)C[C@H](C)C[C@H](OC)[C@H]2O[C@@](O)(C(=O)C(=O)N3CCCC[C@H]3C(=O)O[C@H](/C(C)=C/[C@@H]3CC[C@@H](O)[C@H](OC)C3)[C@H](C)[C@@H](O)CC1=O)[C@H](C)C[C@@H]2OC [Tacrolimus, tacrolimus] , please.
## Result 11.1 days
